- Method: Inhibition of Escherichia coli MsbA preincubated for 10 mins followed by ATP addition and incubated for 1 hr by fluorescence polarization assay
pIC50: −log10 of the molar value.
Endpoint Name: pIC50

Solved cases (2 shown):
                               smiles_entry  value_measured
0  Cc1cc(O[C@@H](C)c2c(Cl)ccc(F)c2Cl)ccc1/C=C/C(=O)O            5.66
1  C[C@H](Oc1ccc2ncc(/C=C/C(=O)O)c(O)c2c1)c1c(Cl)ccc(F)c1Cl            5.30

1 = C[C@H](Oc1ccc2c(=O)nc(/C=C/C(=O)O)n(C3CC3)c2c1)c1c(Cl)ccc(F)c1Cl
2 = C[C@H](Oc1ccc2ncc(/C=C/C(=O)O)c(C3CC3)c2c1)c1c(Cl)cccc1Cl
3 = C[C@H](Oc1ccc2ncc(/C=C/C(=O)O)c(C3COC3)c2c1)c1c(Cl)ccc(F)c1Cl
Query: Which order do these items take when sorted by rising pIC50? List them. Your reply should list the labels following the order given in the request.
Reply: 1, 3, 2
(1: 5.14, 3: 6.92, 2: 8.70)
